Target: hOX2R (Homo sapiens, UniProt O43614)
Sequence (O43614 whole entry): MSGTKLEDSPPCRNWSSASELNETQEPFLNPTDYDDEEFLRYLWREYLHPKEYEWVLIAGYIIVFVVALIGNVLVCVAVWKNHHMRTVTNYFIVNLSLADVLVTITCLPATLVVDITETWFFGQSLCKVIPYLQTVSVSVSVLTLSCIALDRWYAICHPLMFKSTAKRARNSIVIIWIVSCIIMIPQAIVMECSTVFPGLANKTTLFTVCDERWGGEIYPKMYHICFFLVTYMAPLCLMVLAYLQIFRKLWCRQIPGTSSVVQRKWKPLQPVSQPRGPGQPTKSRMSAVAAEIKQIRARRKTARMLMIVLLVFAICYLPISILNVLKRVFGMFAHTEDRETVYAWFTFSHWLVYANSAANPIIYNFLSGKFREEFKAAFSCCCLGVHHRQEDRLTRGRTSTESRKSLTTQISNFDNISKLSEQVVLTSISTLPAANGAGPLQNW
Assay: Intracellular calcium measurements using stable-replicating cells, Method B (CHO cells, FLIPR Tetra), OX2
Format: cell-based
Details: orexin A at EC75, read-out: pIC50 OX2 (converted)
MEASURED PROPERTY: IC50 (µM)
// units = µM; emit number, no label

Return reported IC50; argument: CC[C@@H](CNc1nc2ccccc2o1)N(C)C(=O)c1cc(Cl)ccc1-n1nccn1
0.794

Return reported IC50; argument: Cc1ccc(-n2nccn2)c(C(=O)N(C)[C@H](CNc2ccc(C(F)(F)F)cn2)C(C)C)n1
3.16

Return reported IC50; argument: CC[C@@H](CNc1ncc2ccccc2n1)N(C)C(=O)c1nc(C)ccc1-n1nccn1
3.16

Return reported IC50; argument: CC[C@@H](CNc1nc2ccccc2o1)N(C)C(=O)c1nc(C)ccc1-n1nccn1
2.51

Return reported IC50; argument: CC[C@@H](CNc1cnc2ccccc2n1)N(C)C(=O)c1nc(C)ccc1-n1nccn1
0.794

Return reported IC50; argument: CC[C@@H](CNc1ncc(C(F)(F)F)cn1)N(C)C(=O)c1nc(N(C)C)cc2ccccc12
0.251

Return reported IC50; argument: CC[C@@H](CNc1ccc(Cl)cn1)N(C)C(=O)c1cc(OC(F)(F)F)ccc1-n1nccn1
3.16

====

Target: hOX2R (Homo sapiens)
Experiment: Intracellular calcium measurements using stable-replicating cells, Method B (CHO cells, FLIPR Tetra), OX2
Type: cell-based
Conditions: orexin A at EC75, read-out: pIC50 OX2 (converted)
MEASURED PROPERTY: IC50 (nM)
// units = nM; emit number, no label

Return reported IC50; argument: CC[C@@H](CNc1ccc2ccccc2n1)N(C)C(=O)c1nc(C)ccc1-n1nccn1
2510

Return reported IC50; argument: CC[C@@H](CNc1ncc(C(F)(F)F)cn1)N(C)C(=O)c1cc(Cl)cc2cccnc12
316

Return reported IC50; argument: CC[C@@H](CNc1ccc2ccccc2n1)N(C)C(=O)c1cc(Cl)ccc1-n1nccn1
501

Return reported IC50; argument: CC[C@@H](CNc1ncc(C(F)(F)F)cn1)N(C)C(=O)c1cccc2cccnc12
2510

Return reported IC50; argument: CC[C@@H](CNc1ccc(C(F)(F)F)cn1)N(CC)C(=O)c1nc(C)ccc1-n1nccn1
316

Return reported IC50; argument: CC[C@@H](CNc1ccc(Cl)cn1)N(C)C(=O)c1cc(Br)ccc1-n1nccn1
501

====

Target: hOX1R (Homo sapiens, UniProt O43613)
Sequence (O43613 1-425): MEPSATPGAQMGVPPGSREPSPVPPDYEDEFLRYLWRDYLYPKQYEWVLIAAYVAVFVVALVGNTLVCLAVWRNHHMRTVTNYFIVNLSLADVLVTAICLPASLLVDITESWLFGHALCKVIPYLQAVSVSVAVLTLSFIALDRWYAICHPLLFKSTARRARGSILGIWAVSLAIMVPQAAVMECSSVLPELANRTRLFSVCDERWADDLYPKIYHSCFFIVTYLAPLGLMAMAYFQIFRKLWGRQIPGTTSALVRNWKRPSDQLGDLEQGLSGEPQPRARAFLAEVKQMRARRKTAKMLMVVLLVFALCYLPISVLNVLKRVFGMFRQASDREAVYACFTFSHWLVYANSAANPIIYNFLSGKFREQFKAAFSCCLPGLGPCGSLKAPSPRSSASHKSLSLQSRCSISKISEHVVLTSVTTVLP
Assay: Intracellular calcium measurements using stable-replicating cells, Method B (CHO cells, FLIPR Tetra), OX1
Type: cell-based
Conditions: orexin A at EC75, read-out: pIC50 OX1 (converted)
Could you mark each record y if its IC50 falls strictly under 20 nM, and n if it equals or exceeds it?

Consider CC[C@@H](CNc1ncc2ccccc2n1)N(C)C(=O)c1nc(C)ccc1-n1nccn1 . Does its IC50 lie strictly below 20 nM?
y

Consider CC[C@@H](CNc1ccc(C(F)(F)F)cn1)N(CC)C(=O)c1nc(C)ccc1-n1nccn1 . Does its IC50 lie strictly below 20 nM?
y

Consider CC[C@@H](CNc1ncc(C(F)(F)F)cn1)N(C)C(=O)c1nc(C)cc2ccccc12 . Does its IC50 lie strictly below 20 nM?
y

Consider CC[C@@H](CNc1ncc(C(F)(F)F)cn1)N(C)C(=O)c1nc(OC)ccc1-n1nccn1 . Does its IC50 lie strictly below 20 nM?
n

Consider Cc1ccc(-n2nccn2)c(C(=O)N(C)[C@H](CNc2ncc(C(F)(F)F)cn2)C(C)C)n1 . Does its IC50 lie strictly below 20 nM?
y

Consider CC[C@@H](CNc1ccc2ncccc2n1)N(C)C(=O)c1nc(C)ccc1-n1nccn1 . Does its IC50 lie strictly below 20 nM?
n

Consider Cc1ccc(-n2nccn2)c(C(=O)N(C)[C@H](CNc2ncc(C(F)(F)F)cn2)CC(F)(F)F)n1 . Does its IC50 lie strictly below 20 nM?
y

Consider Cc1ccc(-n2nccn2)c(C(=O)N(C)[C@H](CNc2ccc(C(F)(F)F)cn2)C(C)C)n1 . Does its IC50 lie strictly below 20 nM?
y
